- procedure.text: in vivo
- condition.set: male, Balb/c nude, mouse, ip, 15 mg/kg
measured.endpoint: half-life

| compound.structure.string | measured.endpoint | meas.value |
| --- | --- | --- |
| COC(=O)[C@H]1Cc2c([nH]c3ccccc23)[C@H](c2ccc(C(=O)OC(C)(C)C)cc2)N1C(=O)CCl | half-life | 67.2 min |

----------
- procedure.text: Whole blood stability, human
- Type: in vitro ADME
- condition.set: 60 min
Tick 1.0 if Whole Blood Stability % Remaining at 37° C. Human is 30% or greater. Tick 0.0 if Whole Blood Stability % Remaining at 37° C. Human is less than 30%.

| compound | label.value |
| --- | --- |
| [2H]C([2H])([2H])OC(=O)[C@H]1Cc2c([nH]c3ccccc23)[C@H](c2ccc(C(=O)OC)cc2)N1C(=O)CCl | 1.0 |
| COC(=O)[C@H]1Cc2c([nH]c3ccccc23)[C@H](c2ccc(C(=O)OCC3CCCC3)cc2)N1C(=O)CCl | 1.0 |
| COC(=O)[C@H]1Cc2c([nH]c3ccccc23)[C@@H](c2ccc(C(=O)N3CCC(O)CC3)cc2)N1C(=O)CCl [Compound 32a] | 0.0 |
| COC(=O)[C@H]1Cc2c([nH]c3ccccc23)[C@H](c2ccc(C(=O)OC(C)(C)C)cc2)N1C(=O)/C=C/CCl | 1.0 |
| COC(=O)c1ccc([C@H]2c3[nH]c4c(Br)cccc4c3C[C@H](C(=O)OC)N2C(=O)CCl)cc1 | 1.0 |
| CC(C)(C)OC(=O)[C@H]1Cc2c([nH]c3ccccc23)[C@H](c2ccc([N+](=O)[O-])cc2)N1C(=O)CCl | 1.0 |
| CN(C)C(=O)[C@H]1Cc2c([nH]c3ccccc23)[C@H](c2ccc(S(=O)(=O)C3CCCC3)cc2)N1C(=O)CCl | 0.0 |
| COC(=O)c1ccc([C@H]2c3sc4ccccc4c3C[C@H](C(=O)OC)N2C(=O)CCl)cc1 [Example 55c] | 0.0 |
| COC(=O)[C@H]1Cc2c([nH]c3ccccc23)[C@H](c2ccc(C(=O)OCC3CCCCC3)cc2)N1C(=O)CCl | 1.0 |
| [2H]C([2H])([2H])OC(=O)[C@H]1Cc2c([nH]c3ccccc23)[C@H](c2ccc(C(=O)OC(C)(C)C)cc2)N1C(=O)CCl | 1.0 |
| COC[C@H]1Cc2c([nH]c3ccccc23)[C@@H](c2ccc(C(=O)OC(C)(C)C)cc2)N1C(=O)CCl | 0.0 |
| C[C@H]1Cc2c([nH]c3ccccc23)[C@@H](c2ccc(C(=O)NC34CC(C3)C4)cc2)N1C(=O)CCl | 1.0 |
| COC(=O)[C@H]1Cc2c([nH]c3ccccc23)[C@H](c2ccc(C(=O)N3CCNCC3)cc2)N1C(=O)CCl | 1.0 |
| COC(=O)[C@H]1Cc2c([nH]c3ccccc23)[C@H](c2ccc(C(=O)OC(C)(C)C)cc2)N1C(=O)C(C)Cl (stereo partly drawn) | 1.0 |
| CN(C)C(=O)c1ccc([C@@H]2c3sc4ccccc4c3C[C@H](C(=O)N(C)C)N2C(=O)CCl)cc1 [Compound 55a] | 0.0 |
| COC(=O)[C@H]1Cc2c([nH]c3ccc(Br)cc23)[C@H](c2ccc(C(=O)OCC3CC3)cc2)N1C(=O)CCl | 1.0 |
| CC[C@H]1Cc2c([nH]c3ccccc23)[C@H](c2ccc(C(=O)OC)cc2)N1C(=O)CCl | 1.0 |
| C[C@H]1Cc2c([nH]c3ccccc23)[C@H](c2ccc(C3CCOCC3)cc2)N1C(=O)CCl | 1.0 |
| COC(=O)[C@H]1Cc2c([nH]c3ccccc23)[C@H](C23CC(C(=O)OC)(C2)C3)N1C(=O)CCl | 1.0 |
| COC(=O)c1ccc([C@@H]2c3sc4ccccc4c3C[C@H](C(=O)OC)N2C(=O)CCl)cc1 [Example 55d] | 1.0 |
| CN(C)C(=O)[C@H]1Cc2c([nH]c3ccccc23)[C@H](c2ccc(S(=O)(=O)C(C)(C)C)cc2)N1C(=O)CCl | 0.0 |
| COC(=O)[C@H]1Cc2c([nH]c3ccccc23)[C@H](c2ccc(C(=O)N3CCOCC3)cc2)N1C(=O)CCl | 0.0 |
| CN(C)C(=O)[C@H]1Cc2c([nH]c3ccccc23)[C@H](c2ccc(S(=O)(=O)N3CCC(O)CC3)cc2)N1C(=O)CCl | 0.0 |
| COC(=O)[C@H]1Cc2c([nH]c3ccccc23)[C@H](c2ccc(C(=O)NCC3CC3)cc2)N1C(=O)CCl | 1.0 |
| COC(=O)[C@H]1Cc2c([nH]c3ccccc23)[C@H](c2ccc(C(=O)NCCNC(=O)OC(C)(C)C)cc2)N1C(=O)CCl | 1.0 |
| CN(C)C(=O)[C@H]1Cc2c([nH]c3ccc(Br)cc23)[C@H](c2ccc(C(=O)OC(C)(C)C)cc2)N1C(=O)CCl | 1.0 |
